Hello, the source for this data is PubChem BioAssay (NCI), in case you need it.

- Tested on: OVCAR-8 ovarian
- assayProtocol: NCI tumour cell line growth inhibition, 48 h
What TGI was measured for each of the following?

Worked cases, answers included:
compound: Clc1ccc2nc(CCSCCc3nc4ccc(Cl)cc4[nH]3)[nH]c2c1
TGI: 28 µM
//
compound: COC(=O)C1=CC2OC1(C)C1(CC1)C2=O (stereo unspecified)
TGI: 31.3 µM
//
compound: O=C(O)CCC1CCC(c2cc(F)ccc2F)(S(=O)(=O)c2ccc(Cl)cc2)CC1 (stereo unspecified)
TGI: > 100 µM

Respectfully, I request TGI for each entry included below.
1. O=C(O)CNCc1c2ccccc2[n+]([O-])c2ccccc12
2. CNC(=S)NNC1=NCCCCN1
3. CSc1ccc(-c2cc(-c3nc4ccccc4[nH]3)nc3[nH]c(-c4nc5ccccc5[nH]4)cc(=O)c23)cc1
4. [N-]=[N+]=CC(=O)OCC(N)C(=O)O (stereo unspecified)
5. Cc1nc2ccc(N=NN(C)C)cc2[nH]1
6. O=C(Nc1ccccc1)C(=O)C(C(=O)c1ccccc1)C(c1ccccc1)c1ccccc1 (stereo unspecified)

> 100 µM
> 100 µM
> 100 µM
> 100 µM
> 100 µM
> 10 µM

Report TGI for every entry below.
1. CNC1C(O)CC(OC2C/C=C(\C)C/C(C)=C/C=C/CCC(C)CNC(=O)/C=C/C=C/C2C)OC1C (stereo unspecified)
2. COC(=O)[C@]12CSC[C@H]1C[C@H](c1ccc(N(C)C)cc1)N2

["1.18 µM", "> 100 µM"]
